- System: TK-10 renal
- assay_comment: NCI tumour cell line growth inhibition, 48 h
Form field: TGI (one value per entry).
measurement_type: TGI

# compound, measurement_type, result_value
rows = [
    ("O=C1/C(=C/c2ccccc2[N+](=O)[O-])N=C(c2ccccc2)N1c1nc2ccccc2s1", "TGI", "> 100 µM"),
    ("C/C(=C(\\c1ccc(OCCN2CCCCCC2)cc1)c1ccc(OC(=O)c2ccccc2)cc1)c1ccc(Cl)cc1", "TGI", "10.8 µM"),
    ("CCCCCCCC/C=C/CCCCCCCC1=NC(C)(C)CN1CCO", "TGI", "3.94 µM"),
    ("Cc1cc(-c2cc(O)ccc2Cl)cc2nnc(Nc3ccc(OCCN4CCCC4)cc3)nc12", "TGI", "3 µM"),
    ("CC(=O)[CH-]C(=O)c1ccccc1.CC(=O)[CH-]C(=O)c1ccccc1.CC(=O)[CH-]C(=O)c1ccccc1.[Nd+3].[OH3+]", "TGI", "> 100 µM"),
    ("Cn1cc(-c2cnn3c(N)c(Br)c(C4CCCNC4)nc23)cn1 (centres undefined)", "TGI", "> 83 µM"),
    ("CN(CCCNC(=O)c1cn(C)c2c1Cc1ccccc1-2)CCCNC(=O)c1cn(C)c2c1Cc1ccccc1-2", "TGI", "25.1 µM"),
    ("CC(=O)NCC1OC2COC(c3ccccc3)OC2C(NC(=O)c2ccccc2)C1OC(=O)c1ccccc1 (centres undefined)", "TGI", "> 100 µM"),
    ("CCCSc1ccc2[nH]c(N3C(=O)/C(=C/c4ccc(SC)cc4)N=C3c3ccccc3)cc2c1", "TGI", "> 50 µM"),
    ("O=C1C2C3CC(C4C5C=CC(C5)C34)C2C2C3CC(C12)C1C2C=CC(C2)C31 (centres undefined)", "TGI", "> 100 µM"),
    ("Cn1cc2ccccc2c1-c1nc(F)nc(Oc2ccc3c(c2)CC[C@@H]2C3CC[C@@]3(C)C2C[C@H](O)[C@@H]3O)n1 (some centres undefined)", "TGI", "54.6 µM"),
    ("Clc1cccc(C2N3CCCCC3[C@@H]3c4[nH]c5ccccc5c4CCN23)c1 (some centres undefined)", "TGI", "> 100 µM"),
    ("[B-][P+](CC[P+]1([B-])[C@@H](C)[C@@H](O)[C@H](O)[C@@H]1C)(c1ccccc1)c1ccccc1OC (some centres undefined)", "TGI", "32.5 µM"),
    ("CCOC(=O)c1nc2ccc(C(F)(F)F)cc2nc1NCc1ccc(OC)c(OC)c1", "TGI", "> 100 µM"),
    ("CC(C)(Cl)C(Br)CCC(Br)(CCl)C(Cl)CBr (centres undefined)", "TGI", "> 10 µM"),
    ("COc1cc(C2c3cc4c(cc3C(OC(=O)C[n+]3ccccc3)C3COC(=O)C23)OCO4)cc(OC)c1OC (centres undefined)", "TGI", "> 100 µM"),
    ("CC1C2C=C(O)C(=O)C(C2=O)C1c1ccccc1 (centres undefined)", "TGI", "> 100 µM"),
    ("Cc1cc(=O)n(-c2cc3cccccc-3n2)[nH]1", "TGI", "> 100 µM"),
    ("COc1cccc(Nc2nc3ccccc3c3occc23)c1", "TGI", "17.2 µM"),
]

Source listed as PubChem BioAssay (NCI).
